- MEASURED_ON: human OX2 receptor (Homo sapiens)
- Construct: expressed in transfected cells
- PROCEDURE_SUMMARY: Measurement of orexin type 2 receptor agonist activity (calcium fluorescence, Fluo-4 AM, FDSS)
- Type: cell-based
- CONDITION_SET: compound at 3 μM; CHO cells forcibly expressing human OX2 receptor; DMSO = 0%, 10 nM orexin A (human) = 100%
The entries below are paired with their reported OX2R agonist activity (3 μM, %).
# output: bare number, implied unit %

Some solved entries appear below for comparison.
INSERT INTO measurements (compound, measurement_type, recorded_measurement) VALUES
  ('CS(=O)(=O)N[C@@H]1CN(C2=NOC(c3c(F)cc(F)cc3-c3ncc(F)cc3F)C2)C[C@@H]1F (stereo partly shown) [Example 139]', 'OX2R agonist activity (3 μM, %)', 94),
  ('Cc1cnc([C@@H]2CC(N3C[C@@H](NS(C)(=O)=O)C(F)(F)C3)=NO2)c(-c2c(F)cc(Cl)cc2F)c1 [Example 53]', 'OX2R agonist activity (3 μM, %)', 98),
  ('O=S(=O)(N[C@@H]1CN(C2=NOC(c3ncc(Cl)cc3-c3c(F)cccc3F)C2)C[C@@H]1F)C1CC1 (stereo partly shown) [Example 98]', 'OX2R agonist activity (3 μM, %)', 108);

Please fill in: OX2R agonist activity (3 μM, %) reported for Cc1cnc(C2CC(C3CC(NS(C)(=O)=O)C3)=NO2)c(-c2c(F)cc(F)cc2F)c1 (stereo not shown) [Example 23] = 42

Please fill in: OX2R agonist activity (3 μM, %) reported for CS(=O)(=O)N[C@@H]1CN(C2=NOC(c3c(F)cccc3-c3c(F)cccc3F)C2)C[C@@H]1F (stereo partly shown) [Example 141] = 97

Please fill in: OX2R agonist activity (3 μM, %) reported for Cc1cnc(C2CC([C@H]3CC[C@@H](NS(C)(=O)=O)CC3)=NO2)c(-c2c(F)cc(F)cc2F)c1 (stereo partly shown) [Example 24] = 20

Please fill in: OX2R agonist activity (3 μM, %) reported for O=S(=O)(CF)N[C@H]1CCN(C2=NOC(c3ncc(Br)cc3-c3c(F)cccc3F)C2)C1 (stereo partly shown) [Example 102] = 95

###

The entries below are paired with their reported OX2R agonist activity (3 μM, %).
- MEASURED_ON: human OX2 receptor (Homo sapiens)
- Construct: expressed in transfected cells
- Sequence (O43614 1-444): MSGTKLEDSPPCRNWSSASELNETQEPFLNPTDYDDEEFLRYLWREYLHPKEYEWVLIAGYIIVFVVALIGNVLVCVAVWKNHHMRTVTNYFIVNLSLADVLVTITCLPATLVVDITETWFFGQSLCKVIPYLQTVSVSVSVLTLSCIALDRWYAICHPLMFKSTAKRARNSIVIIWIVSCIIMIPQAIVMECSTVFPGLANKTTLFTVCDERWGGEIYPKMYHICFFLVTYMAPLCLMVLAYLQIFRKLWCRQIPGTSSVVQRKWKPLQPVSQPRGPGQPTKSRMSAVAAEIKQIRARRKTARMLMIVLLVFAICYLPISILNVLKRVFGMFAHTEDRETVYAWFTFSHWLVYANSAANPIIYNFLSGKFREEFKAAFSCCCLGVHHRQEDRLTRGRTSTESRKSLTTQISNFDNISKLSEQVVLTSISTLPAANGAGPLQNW
- PROCEDURE_SUMMARY: Measurement of orexin type 2 receptor agonist activity (calcium fluorescence, Fluo-4 AM, FDSS)
- Format: cell-based
- CONDITION_SET: compound at 3 μM; CHO cells forcibly expressing human OX2 receptor; DMSO = 0%, 10 nM orexin A (human) = 100%
# output: bare number, implied unit %

Some solved entries appear below for comparison.
INSERT INTO results (compound, measurement_type, recorded_measurement) VALUES
  ('Cc1ccc([C@@H]2CC(N3CC[C@H](NS(C)(=O)=O)C3)=NO2)c(-c2ncc(F)cc2F)c1', 'OX2R agonist activity (3 μM, %)', 99),
  ('O=S(=O)(N[C@@H]1CN(C2=NOC(c3ncc(F)cc3-c3c(F)cccc3F)C2)CC1(F)F)C1CC1 (stereo partly shown)', 'OX2R agonist activity (3 μM, %)', 98),
  ('Cc1cnc(C2CC(N(C)[C@H]3C[C@@H](NS(C)(=O)=O)C3)=NO2)c(-c2c(F)cccc2F)c1 (stereo partly shown)', 'OX2R agonist activity (3 μM, %)', 77),
  ('COCC1(c2ncc(F)cc2-c2c(F)cccc2F)CC(N2C[C@@H](NS(C)(=O)=O)C(F)(F)C2)=NO1 (stereo partly shown)', 'OX2R agonist activity (3 μM, %)', 112),
  ('CCS(=O)(=O)N[C@H]1CCN(C2=NOC(c3ccccc3-c3c(F)cccc3F)C2)C1 (stereo partly shown)', 'OX2R agonist activity (3 μM, %)', 95),
  ('Cc1cnc(C2CC(N3C[C@@H](NS(C)(=O)=O)C(F)(F)C3)=NO2)c(-c2c(F)cccc2F)c1 (stereo partly shown)', 'OX2R agonist activity (3 μM, %)', 100);

From here, focus on the item given below.
Please fill in: OX2R agonist activity (3 μM, %) reported for "Cc1cnc([C@@H]2CC(N3CC[C@H](NS(=O)(=O)C4(F)CC4)C3)=NO2)c(-c2c(F)cc(F)cc2F)c1" = 99

###

- MEASURED_ON: human OX2 receptor (Homo sapiens, UniProt O43614)
- Construct: expressed in transfected cells
- PROCEDURE_SUMMARY: Measurement of orexin type 2 receptor agonist activity (calcium fluorescence, Fluo-4 AM, FDSS)
- Assay type: cell-based
- CONDITION_SET: compound at 3 μM; CHO cells forcibly expressing human OX2 receptor; DMSO = 0%, 10 nM orexin A (human) = 100%
MEASUREMENT_TYPE: OX2R agonist activity (3 μM, %)
# output: bare number, implied unit %

Some solved entries appear below for comparison.
INSERT INTO assay_data (compound, result_units, recorded_measurement) VALUES
  ('CCS(=O)(=O)N[C@H]1CCN(C2=NOC(CF)(c3ncc(F)cc3-c3c(F)cccc3F)C2)C1 (stereo partly shown) [Example 88]', '%', 112),
  ('Cc1cnc([C@@H]2CC(N3CC[C@H](NS(=O)(=O)CF)C3)=NO2)c(-c2c(F)cccc2F)c1 [Example 38]', '%', 104),
  ('Cc1cc(F)c(C2CC(N3C[C@@H](NS(=O)(=O)CF)C(F)(F)C3)=NO2)c(-c2ncc(F)cc2F)c1 (stereo partly shown) [Example 177]', '%', 106);

From here, focus on the item given below.
Please fill in: OX2R agonist activity (3 μM, %) reported for CS(=O)(=O)NC1CCN(C2=NOC(c3ccccc3-c3c(F)cccc3F)C2)CC1 (stereo not shown) [Example 7] = 53

###

The entries below are paired with their reported OX2R agonist activity (3 μM, %).
- MEASURED_ON: human OX2 receptor (Homo sapiens, UniProt O43614)
- Construct: expressed in transfected cells
- Sequence (O43614 1-444): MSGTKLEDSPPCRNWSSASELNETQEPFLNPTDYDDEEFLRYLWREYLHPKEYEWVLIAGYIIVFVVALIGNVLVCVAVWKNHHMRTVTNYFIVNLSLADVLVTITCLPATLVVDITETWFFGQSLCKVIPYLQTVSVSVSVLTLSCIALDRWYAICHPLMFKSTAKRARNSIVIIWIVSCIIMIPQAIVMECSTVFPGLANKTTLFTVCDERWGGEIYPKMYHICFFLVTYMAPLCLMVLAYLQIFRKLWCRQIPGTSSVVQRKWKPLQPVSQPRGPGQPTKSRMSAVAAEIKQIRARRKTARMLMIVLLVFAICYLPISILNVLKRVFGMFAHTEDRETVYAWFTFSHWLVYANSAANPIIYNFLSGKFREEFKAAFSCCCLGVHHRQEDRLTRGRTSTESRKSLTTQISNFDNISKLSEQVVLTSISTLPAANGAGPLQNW
- PROCEDURE_SUMMARY: Measurement of orexin type 2 receptor agonist activity (calcium fluorescence, Fluo-4 AM, FDSS)
- Assay type: cell-based
- CONDITION_SET: compound at 3 μM; CHO cells forcibly expressing human OX2 receptor; DMSO = 0%, 10 nM orexin A (human) = 100%
# output: bare number, implied unit %

Some solved entries appear below for comparison.
INSERT INTO assay_data (molecule, measurement_type, recorded_measurement) VALUES
  ('Cc1cnc([C@@H]2CC(N3C[C@@H](NS(=O)(=O)C(F)F)C(F)(F)C3)=NO2)c(-c2c(F)cc(F)cc2F)c1', 'OX2R agonist activity (3 μM, %)', 105),
  ('CCS(=O)(=O)N[C@@H]1CN(C2=NOC(CF)(c3ncccc3-c3c(F)cccc3F)C2)CC1(F)F (stereo partly shown)', 'OX2R agonist activity (3 μM, %)', 107),
  ('Cc1cnc(C2(CF)CC(N3C[C@H](F)[C@H](NS(C)(=O)=O)C3)=NO2)c(-c2c(F)cccc2F)n1 (stereo partly shown)', 'OX2R agonist activity (3 μM, %)', 97),
  ('Cc1cnc(C2CC(N3C[C@@H](NS(C)(=O)=O)C(F)(F)C3)=NO2)c(-c2c(F)cccc2Cl)c1 (stereo partly shown)', 'OX2R agonist activity (3 μM, %)', 98),
  ('CS(=O)(=O)N[C@@H]1CN(C2=NOC(c3ncc(Cl)cc3-c3c(F)cc(F)cc3F)C2)CC1(F)F (stereo partly shown)', 'OX2R agonist activity (3 μM, %)', 97);

From here, focus on the item given below.
Please fill in: OX2R agonist activity (3 μM, %) reported for CS(=O)(=O)N[C@@H]1CN(C2=NOC(c3ncc(F)cc3-c3c(F)cc(F)cc3F)C2)CC1(F)F (stereo partly shown) = 94

Data provenance: patent US20240217957A1
